- target-of-assay: Prothrombin (Homo sapiens, UniProt P00734)
- test-protocol: Inhibition constant against human alpha thrombin
Task for the reader: assign each of the following compounds its reported Ki.
Answers are plain numbers, in nM.

Solved cases (5 shown):
[
  {
    "compound": "CN[C@H](Cc1ccccc1)C(=O)N[C@H](C(=O)NC(CCCN=C(N)N)C(=O)c1nc2ccccc2s1)C(C)C (stereo partly specified)",
    "Ki / nM": 21
  },
  {
    "compound": "N=C(N)NCCC[C@H](NC(=O)[C@@H]1CCCN1C(=O)[C@H](CO)NS(=O)(=O)c1cccc2ccccc12)C(=O)c1nc2ccccc2s1",
    "Ki / nM": 10
  },
  {
    "compound": "N=C(N)NCCCC(NC(=O)[C@@H]1CCCN1C(=O)CC(c1ccccc1)c1ccccc1)C(=O)c1nc2ccccc2s1 (stereo partly specified)",
    "Ki / nM": 3.1
  },
  {
    "compound": "CCS(=O)(=O)N[C@H](Cc1ccccc1)C(=O)N1CCC[C@H]1C(=O)NC(CCCN=C(N)N)C(=O)c1nc2ccccc2s1 (stereo partly specified)",
    "Ki / nM": 24
  },
  {
    "compound": "CN[C@H](Cc1ccccc1)C(=O)N1CCC[C@H]1C(=O)N[C@H](C=O)CCCNC(=N)N (stereo in doubt; 1b)",
    "Ki / nM": 18
  }
]

Field: next compound
In: What value of measured Ki is listed for CN[C@H](Cc1ccccc1)C(=O)N1CCC[C@H]1C(=O)N[C@@H](CCCN=C(N)N)C(=O)c1nc2ccccc2s1 ?
Out: 0.18
